target: human A2a adenosine receptor (Homo sapiens (Human), UniProt P29274); assay: A2a receptor affinity radioligand binding assay ([3H] SCH58261, membranes from HEK293 or CHO cells); settings: unstarred values: radioligand binding
Sequence (P29274 whole entry): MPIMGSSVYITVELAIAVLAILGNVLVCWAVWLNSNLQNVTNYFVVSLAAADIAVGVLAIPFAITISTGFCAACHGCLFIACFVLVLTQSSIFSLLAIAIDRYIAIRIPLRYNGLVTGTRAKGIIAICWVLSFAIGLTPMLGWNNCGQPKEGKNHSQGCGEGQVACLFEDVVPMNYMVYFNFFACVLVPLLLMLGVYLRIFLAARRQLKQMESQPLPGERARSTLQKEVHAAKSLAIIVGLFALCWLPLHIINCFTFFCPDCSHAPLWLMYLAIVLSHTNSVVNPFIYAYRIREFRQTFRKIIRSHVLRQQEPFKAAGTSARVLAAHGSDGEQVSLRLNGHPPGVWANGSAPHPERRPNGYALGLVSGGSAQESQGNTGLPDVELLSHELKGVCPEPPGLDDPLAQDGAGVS
assayReadout: pIC50
One number for each entry, as −log10 of the molar value.

Use these answered entries as a reference point.
COc1ccc2c(c1)nc(N)n1nc([C@@H]3CCCN(c4cnn([C@@H](C)[C@@H](C)O)c4)C3)nc21 [Example 221A] :: 8.72
COc1cccc2c1nc(N)n1nc([C@@H]3CCCN(c4cnn(C(C)C(C)(C)O)c4)C3)nc21 (single isomer, unassigned) [Example 61B] :: 9.40
COc1cccc2c1nc(N)n1nc([C@@H]3CCCN(c4c(C)nn(C)c4C)C3)nc21 :: 9.10
COc1cccc2c1nc(N)n1nc([C@@H]3CCCN(c4ccn(C)c(=O)c4)C3)nc21 :: 8.82
COc1cccc2c1nc(N)n1nc(C3CN(c4cnn(CC(F)(F)F)c4)CC(F)(F)C3)nc21 (single isomer, unassigned) [Example 155A] :: 7.92
COc1cccc2c1nc(N)n1nc([C@H]3CCO[C@H](c4cnn(C)c4)C3)nc21 [Example 139C] :: 6.99

Provide pIC50 values for the following items, in order.
1. COc1ccc2c(c1)nc(N)n1nc([C@H]3C[C@@H](C)CN(c4cnn(C(C)(C)CO)c4)C3)nc21 [Example 222C]
2. COc1cccc2c1nc(N)n1nc([C@@H]3CCCN(c4cnn(C5CCC5O)c4)C3)nc21 (single isomer, unassigned) [Example 60A]
3. COc1cccc2c1nc(N)n1nc([C@@H]3CCC4CCC3N4c3cnn(C)c3)nc21 (mixture of isomers) [Example 130B]
4. COc1cccc2c1nc(N)n1nc(C3CCC(C)N(c4cnn(C5CC5)c4)C3)nc21 (single isomer, unassigned) [Example 141C]
5. COc1cccc2c1nc(N)n1nc([C@@H]3CCCN(c4cn(CC(F)(F)F)nn4)C3)nc21
6. COc1ccc2c(c1)nc(N)n1nc([C@@H]3CCCN(c4ncn(CC(C)(C)O)n4)C3)nc21

Reply:
9.40
8.74
7.99
9.00
9.10
8.17

Provide pIC50 values for the following items, in order.
1. COc1ccc2c(c1)nc(N)n1nc([C@@H]3CCCN(c4cnn(CC(C)(C)O)c4)C3)nc21
2. COc1cccc2c1nc(N)n1nc([C@@H]3CCCN(c4cnn(CC5(O)CCC5)c4)C3)nc21

Reply:
1: 8.46; 2: 9.00

src = patent US12263171B2
